Please go through the items and note down their Binding affinity (RU).
biological target: acetylcholine receptor; test: SPR, AchR immobilised on CM5 chip, peptide 10 uM
Give bare numbers, in RU.

Study these solved cases before continuing.
{"columns": ["binder", "unit", "measured-value"],
 "data": [
  ["RKKCER [6mer-1-1026]", "RU", 30],
  ["KRHWIR [6mer-1-1052]", "RU", 33]
]}

Respectfully, I request Binding affinity (RU) for each entry included below.
1. KKHDIK [6mer-1-1021]
2. RKATNR [6mer-1-999]
3. KKWVKR [6mer-2-607]
4. KRTNGK [6mer-1-953]
5. KRAHDK [6mer-1-993]

Output:
1: 41; 2: 24; 3: 31; 4: 26; 5: 26

Input: // lookup Binding affinity (RU) for RKWHKR [6mer-2-670]
Output: 33

These measurements were taken from patent US20250011363A1.
